testMethodNotes: clinical
experimentalContext: human, in vivo, po, 25 mg

[
  {
    "chemicalString": "Cn1c(=O)n([C@@H]2CCC(=O)NC2=O)c2cccc(C#CCOC3CCN(C[C@H]4CC[C@H](n5cc(NC(=O)c6cnn7ccc(N8C[C@H]9C[C@@H]8CO9)nc67)c(C(F)F)n5)CC4)CC3)c21",
    "half-life, h": 25.2
  }
]

---

testMethodNotes: clinical
experimentalContext: human, in vivo, po, 150 mg
experimentalReadout: Cmax (ng/mL)

[
  {
    "molecule": "Cn1c(=O)n([C@@H]2CCC(=O)NC2=O)c2cccc(C#CCOC3CCN(C[C@H]4CC[C@H](n5cc(NC(=O)c6cnn7ccc(N8C[C@H]9C[C@@H]8CO9)nc67)c(C(F)F)n5)CC4)CC3)c21 [Compound A]",
    "experimentalReadout": "Cmax",
    "unitString": "ng/mL",
    "recordedValue": 12.7
  }
]
